Test: Ileostomy effluent study (5-ASA / 5-AcASA excretion) in ileostomy patients
Format: in vivo, human (ileostomy patients)
Details: human, ileostomy effluent, po, 500 mg; one patient; collecting up to 48 hours; read-out: further 5-ASA found on expanded collection
Excerpt: DETERMINATION OF 5-[…] BIOLOGICAL FLUIDS […] ILEOSTOMY PATIENTS Six ileostomy patients colectomized because of colitis ulcerosa with intact small bowel were studied. Their distribution as to sex, age, height, body weight, time since colectomy, small bowel transit time (carmine), and acetylator phenotype (v. Fischer and Klotz, op. cit.) (assessed by sulphadimidine) are shown below in talbe I. ILEOSTOMY PATIENTS […] […]
Measured Endpoint: dose excreted at 48 h
A bare number is not enough; add the unit after it.

Query :: Return dose excreted at 48 h (reported value) for this molecule: "Nc1ccc(O)c(C(=O)O)c1"
Result :: 20%

* * *

assay: Ileostomy effluent study (5-ASA / 5-AcASA excretion) in ileostomy patients; type: in vivo, human (ileostomy patients); conditions: human, small bowel, po, 500 mg; composition of the invention, ileostomy patients; read-out: 5-ASA that may be absorbed from the small bowel
Measured Endpoint: Fa

Query :: Input "Nc1ccc(O)c(C(=O)O)c1" , output reported Fa.
Result :: ≤ 50%

Reference source: patent US4960765A
